System: C. elegans VP596 worm health composite score, 20-22 h
Assay: C. elegans worm health toxicity scoring, SAR follow-up, cytotoxicity control for SKN-1 inhibitor project, whole organism, strain VP596, composite health score, round 3 (AID 743062)
Activity calls are given as the source filed them.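 How the source made its calls: active means IC50 of 25 µM or lower, counted as toxic to worms; inactive means the rest.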
Outcomes: t for active, f for inactive

# compound_structure_string, class_assignment
measured = [
    ("Cc1sc(-c2ccncc2)nc1-c1ccc(Cl)cc1", "f"),
    ("COc1ccc(-c2csc(-c3cccnc3)n2)cc1", "f"),
    ("Cc1ccc(-c2csc(-c3ccncc3)n2)cc1", "f"),
    ("Fc1ccc(-c2csc(-c3ccccc3)n2)cc1", "f"),
    ("Clc1cccc(-c2csc(-c3ccncc3)n2)c1", "t"),
    ("Clc1ccc(-c2csc(C3CCNCC3)n2)cc1", "f"),
    ("Cc1ccc(-c2csc(C3CCNCC3)n2)cc1", "f"),
    ("FC(F)(F)c1ccc(-c2csc(-c3ccncc3)n2)cc1", "t"),
    ("Cc1cccc(-c2csc(-c3ccncc3)n2)c1", "f"),
    ("Fc1ccc(-c2csc(-c3ccccn3)n2)cc1", "f"),
    ("CCCc1cc(-c2nc(-c3ccc(NS(C)(=O)=O)cc3)cs2)ccn1", "f"),
    ("COc1ccc(-c2csc(-c3ccncc3)n2)cc1", "f"),
    ("Cc1sc(-c2ccncc2)nc1-c1ccccc1", "f"),
    ("Fc1ccc(-c2csc(C3CCNCC3)n2)cc1", "f"),
    ("Cc1sc(-c2ccncc2)nc1-c1ccc(F)cc1", "f"),
    ("Cc1csc(-c2ccncc2)n1", "f"),
    ("Fc1ccc(-c2csc(-c3ccncc3)n2)cc1", "f"),
    ("COC(=O)c1ccc(-c2csc(-c3ccncc3)n2)cc1", "f"),
    ("COc1ccc(-c2csc(-c3ccccc3)n2)cc1", "f"),
    ("Cc1ccc(-c2csc(-c3ccccn3)n2)cc1", "f"),
    ("Cc1sc(C2CCNCC2)nc1-c1ccccc1", "f"),
    ("c1cc(-c2nc(C3CC3)cs2)ccn1", "f"),
    ("c1cc(-c2nc(-c3nccs3)cs2)ccn1", "f"),
    ("c1ccc(-c2nc(-c3cccnc3)cs2)cc1", "f"),
    ("CC(C)(C)c1csc(-c2ccncc2)n1", "f"),
    ("COc1ccc(-c2csc(-c3ccccn3)n2)cc1", "t"),
    ("c1ccc(-c2csc(-c3cccnc3)n2)cc1", "f"),
    ("Cc1ccccc1-c1csc(-c2ccncc2)n1", "f"),
]
